These data points were gathered from patent US7928231B2.

MEASURED_PARAMETER: melting point

[[record]]
compound = "COc1cccc(-c2cc3[nH]nc(-c4cc5ccc(OCCCN6CCC(O)CC6)cc5[nH]4)c3s2)c1"
assay_value = "205 to 207 °C"

[[record]]
compound = "OC1CCCN(CCCOc2ccc3cc(-c4n[nH]c5cc(-c6ccccc6)sc45)[nH]c3c2)C1 (stereo not drawn)"
assay_value = "213 to 216 °C"

[[record]]
compound = "OC1CCN(CCCOc2ccc3cc(-c4n[nH]c5cc(-c6ccccc6)sc45)[nH]c3c2)CC1"
assay_value = "239 to 242 °C"

[[record]]
compound = "O=C(c1cc2[nH]nc(-c3cc4cc(CO)ccc4[nH]3)c2s1)N1CCN(c2ccc(F)cc2)CC1"
assay_value = "156 to 158 °C"

[[record]]
compound = "OC(c1ccc2cc(-c3n[nH]c4ccsc34)[nH]c2c1)(C1CC1)C1CC1"
assay_value = "110 to 112 °C"

[[record]]
compound = "COc1ccc2[nH]c(-c3n[nH]c4ccsc34)cc2n1"
assay_value = "234 to 236 °C"


* * *

Sequence of the target: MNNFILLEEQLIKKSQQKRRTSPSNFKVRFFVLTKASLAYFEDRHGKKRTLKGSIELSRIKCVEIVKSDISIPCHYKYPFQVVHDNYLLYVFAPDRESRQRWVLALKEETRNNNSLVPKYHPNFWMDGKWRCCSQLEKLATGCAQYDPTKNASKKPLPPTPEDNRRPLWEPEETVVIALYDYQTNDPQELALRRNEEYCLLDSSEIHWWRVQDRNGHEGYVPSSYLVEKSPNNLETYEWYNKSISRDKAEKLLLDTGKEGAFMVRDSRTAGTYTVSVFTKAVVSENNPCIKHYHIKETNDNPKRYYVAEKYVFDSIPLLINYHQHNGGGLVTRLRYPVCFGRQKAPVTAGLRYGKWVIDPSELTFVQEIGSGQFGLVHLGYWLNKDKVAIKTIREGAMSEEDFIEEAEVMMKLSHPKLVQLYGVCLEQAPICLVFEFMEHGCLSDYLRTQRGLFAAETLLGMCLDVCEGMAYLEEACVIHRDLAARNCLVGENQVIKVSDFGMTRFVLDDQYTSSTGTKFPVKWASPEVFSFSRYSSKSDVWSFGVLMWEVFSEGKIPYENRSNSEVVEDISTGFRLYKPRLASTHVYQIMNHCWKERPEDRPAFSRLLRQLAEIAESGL
pIC50: −log10 of the molar value. Structures can show the parent of a compound that is named as a salt.
MEASURED_PARAMETER: pIC50

[[record]]
compound = "OC1CCCN(CCCOc2ccc3[nH]c(-c4n[nH]c5ccsc45)cc3c2)C1 (centres unmarked)"
measured_parameter = "pIC50"
assay_value = 7.12

[[record]]
compound = "c1cc2[nH]nc(-c3cc4cc(OCCCN5CCCCC5)ccc4[nH]3)c2s1"
measured_parameter = "pIC50"
assay_value = 7.78

[[record]]
compound = "c1ccc2[nH]c(-c3n[nH]c4ccsc34)nc2c1"
measured_parameter = "pIC50"
assay_value = 6.78

[[record]]
compound = "OC1CCN(CCCOc2ccc3[nH]c(-c4n[nH]c5ccsc45)cc3c2)C1 (centres unmarked)"
measured_parameter = "pIC50"
assay_value = 7.34

[[record]]
compound = "OC1CCN(CCCOc2ccc3cc(-c4n[nH]c5ccsc45)[nH]c3c2)CC1"
measured_parameter = "pIC50"
assay_value = 8.44

[[record]]
compound = "c1ccc2c(c1)sc1c(-c3nc4ccc(OCCCN5CCCCC5)cc4[nH]3)n[nH]c12 [Example 20, hydrochloride]"
measured_parameter = "pIC50"
assay_value = 6.95

[[record]]
compound = "COc1ccc2nc(-c3n[nH]c4ccsc34)[nH]c2c1"
measured_parameter = "pIC50"
assay_value = 6.80

[[record]]
compound = "COc1ccc2[nH]c(-c3n[nH]c4ccsc34)cc2n1"
measured_parameter = "pIC50"
assay_value = 6.65

[[record]]
compound = "CCN1CCN(CCCOc2ccc3cc(-c4n[nH]c5ccsc45)[nH]c3c2)CC1"
measured_parameter = "pIC50"
assay_value = 8.53

[[record]]
compound = "OC1CCN(CCCOc2ccc3cc(-c4n[nH]c5ccsc45)[nH]c3c2)C1 (centres unmarked)"
measured_parameter = "pIC50"
assay_value = 7.82

[[record]]
compound = "CN(C)CCCOc1ccc2cc(-c3n[nH]c4ccsc34)[nH]c2c1"
measured_parameter = "pIC50"
assay_value = 7.62

